studyTarget: Mushroom tyrosinase (Agaricus bisporus, UniProt O42713+Q00024+C7FF04+C7FF05)
assayRemarks: Inhibition of mushroom tyrosinase diphenolase activity using L-DOPA as substrate measured after 5 mins
endpoint: IC50 (µM)
Kindly provide the numeric value in µM only, without the unit symbol.

smilesEntry: COc1cc2[nH]cc(C(=O)CCN3CCC(Cc4ccccc4)CC3)c2cc1OC
resultValue: 133
//
smilesEntry: O=C(CCN1CCC(Cc2ccc(F)cc2)CC1)c1c[nH]c2ccccc12
resultValue: 8.82
//
smilesEntry: COc1cc2[nH]cc(C(=O)CCN3CCC(Cc4ccc(F)cc4)CC3)c2cc1OC
resultValue: 7.56
//
smilesEntry: COc1ccc2c(C(=O)CCN3CCC(Cc4ccc(F)cc4)CC3)c[nH]c2c1
resultValue: 18.03
//
smilesEntry: CCN1CCC(Cc2ccc(F)cc2)CC1
resultValue: 116

API: value(readout= IC50, system= Mushroom tyrosinase (Agaricus bisporus, UniProt O42713+Q00024+C7FF04+C7FF05), query= `O=C(CCN1CCC(Cc2ccc(F)cc2)CC1)Nc1ccccc1` ) 27.9

Any idea what IC50 came out for `COc1ccc2c(C(=O)CCN3CCC(Cc4ccccc4)CC3)c[nH]c2c1` on Mushroom tyrosinase (Agaricus bisporus, UniProt O42713+Q00024+C7FF04+C7FF05)? 168.55

Form field - read-out: IC50; system: Mushroom tyrosinase (Agaricus bisporus, UniProt O42713+Q00024+C7FF04+C7FF05); submitted item: `O=C(CCN1CCC(Cc2ccc(F)cc2)CC1)NCc1ccccc1` 83

Give Mushroom tyrosinase (Agaricus bisporus, UniProt O42713+Q00024+C7FF04+C7FF05) IC50 for `O=C(CCN1CCC(Cc2ccccc2)CC1)c1c[nH]c2ccccc12` 252

Query the reported IC50 for Mushroom tyrosinase (Agaricus bisporus, UniProt O42713+Q00024+C7FF04+C7FF05); item: `O=C(CCN1CCC(Cc2ccc(F)cc2)CC1)Nc1cc[nH]n1` 39.58

API: value(readout=IC50, system=Mushroom tyrosinase (Agaricus bisporus, UniProt O42713+Q00024+C7FF04+C7FF05)) for record `O=C(CCN1CCC(Cc2ccc(F)cc2)CC1)n1cnc2ccccc21` 159.24

What measured IC50 is associated with `COc1ccc2[nH]cc(C(=O)CCN3CCC(Cc4ccccc4)CC3)c2c1` on Mushroom tyrosinase (Agaricus bisporus, UniProt O42713+Q00024+C7FF04+C7FF05)? 197.45

Please state recorded IC50 (tested on Mushroom tyrosinase (Agaricus bisporus, UniProt O42713+Q00024+C7FF04+C7FF05)) of `COc1ccc2[nH]cc(C(=O)CCN3CCC(Cc4ccc(F)cc4)CC3)c2c1` 14.15

Which IC50 is reported with Mushroom tyrosinase (Agaricus bisporus, UniProt O42713+Q00024+C7FF04+C7FF05) for this entry: `Cc1cc(NC(=O)CCN2CCC(Cc3ccc(F)cc3)CC2)on1` ? 110.95

###

Catalogue of IC50 values
studyTarget: Mushroom tyrosinase (Agaricus bisporus, UniProt O42713+Q00024+C7FF04+C7FF05)
assayRemarks: Inhibition of mushroom tyrosinase monophenolase activity using L-tyrosine as substrate measured after 30 mins
Please respond with the number in µM and leave the unit unwritten.

Example entries and their recorded answers appear below.
smilesEntry: COc1ccc2[nH]cc(C(=O)CCN3CCC(Cc4ccccc4)CC3)c2c1
studyTarget: Mushroom tyrosinase (Agaricus bisporus, UniProt O42713+Q00024+C7FF04+C7FF05)
IC50 [µM]: 25.78

smilesEntry: O=C(CCN1CCC(Cc2ccccc2)CC1)c1c[nH]c2ccccc12
studyTarget: Mushroom tyrosinase (Agaricus bisporus, UniProt O42713+Q00024+C7FF04+C7FF05)
IC50 [µM]: 175

smilesEntry: COc1ccc2c(C(=O)CCN3CCC(Cc4ccc(F)cc4)CC3)c[nH]c2c1
studyTarget: Mushroom tyrosinase (Agaricus bisporus, UniProt O42713+Q00024+C7FF04+C7FF05)
IC50 [µM]: 9.4

smilesEntry: O=C(CCN1CCC(Cc2ccc(F)cc2)CC1)n1cnc2ccccc21
studyTarget: Mushroom tyrosinase (Agaricus bisporus, UniProt O42713+Q00024+C7FF04+C7FF05)
IC50 [µM]: 113.34

smilesEntry: COc1ccc2c(C(=O)CCN3CCC(Cc4ccccc4)CC3)c[nH]c2c1
studyTarget: Mushroom tyrosinase (Agaricus bisporus, UniProt O42713+Q00024+C7FF04+C7FF05)
IC50 [µM]: 67.25

Recorded IC50 for `COc1cc2[nH]cc(C(=O)CCN3CCC(Cc4ccc(F)cc4)CC3)c2cc1OC` with Mushroom tyrosinase (Agaricus bisporus, UniProt O42713+Q00024+C7FF04+C7FF05), please? 5.11

Param readout = IC50; param system = Mushroom tyrosinase (Agaricus bisporus, UniProt O42713+Q00024+C7FF04+C7FF05); param query = `O=C(CCN1CCC(Cc2ccc(F)cc2)CC1)Nc1ccccc1` ; response: value 28.85

Enter reported IC50 observed with Mushroom tyrosinase (Agaricus bisporus, UniProt O42713+Q00024+C7FF04+C7FF05) for `O=C(CCN1CCC(Cc2ccc(F)cc2)CC1)c1c[nH]c2ccccc12` 9.45

Report IC50 for `Cc1cc(NC(=O)CCN2CCC(Cc3ccc(F)cc3)CC2)on1` tested on Mushroom tyrosinase (Agaricus bisporus, UniProt O42713+Q00024+C7FF04+C7FF05). 28.55

Missing value: IC50, Mushroom tyrosinase (Agaricus bisporus, UniProt O42713+Q00024+C7FF04+C7FF05), entry `O=C(CCN1CCC(Cc2ccc(F)cc2)CC1)Nc1cc[nH]n1` . Fill in? 5.87

// lookup IC50 | system=Mushroom tyrosinase (Agaricus bisporus, UniProt O42713+Q00024+C7FF04+C7FF05) | key= `CCN1CCC(Cc2ccc(F)cc2)CC1` 32.17

###

studyTarget: Mushroom tyrosinase (Agaricus bisporus, UniProt O42713+Q00024+C7FF04+C7FF05)
assayRemarks: Inhibition of mushroom tyrosinase monophenolase activity using L-tyrosine as substrate measured after 30 mins
Some compounds, each annotated with its measured IC50.
The answer is to be given in µM; state only the numeric part.

// solved cases for IC50 follow
smilesEntry: O=C(CCN1CCC(Cc2ccc(F)cc2)CC1)NCc1ccccc1
studyTarget: Mushroom tyrosinase (Agaricus bisporus, UniProt O42713+Q00024+C7FF04+C7FF05)
IC50 [µM]: 13.98
--
smilesEntry: COc1cc2[nH]cc(C(=O)CCN3CCC(Cc4ccccc4)CC3)c2cc1OC
studyTarget: Mushroom tyrosinase (Agaricus bisporus, UniProt O42713+Q00024+C7FF04+C7FF05)
IC50 [µM]: 57.24

Entry `COc1ccc2[nH]cc(C(=O)CCN3CCC(Cc4ccc(F)cc4)CC3)c2c1` : reported IC50 = ? 7.86
